target: Protein arginine N-methyltransferase 3 (Homo sapiens, UniProt O60678); assay: Inhibition of human PRMT3 using H4-21peptide as substrate at 10 uM incubated for 10 mins by fluorescence based analysis relative to control
Sequence (O60678 2-531 limits assumed): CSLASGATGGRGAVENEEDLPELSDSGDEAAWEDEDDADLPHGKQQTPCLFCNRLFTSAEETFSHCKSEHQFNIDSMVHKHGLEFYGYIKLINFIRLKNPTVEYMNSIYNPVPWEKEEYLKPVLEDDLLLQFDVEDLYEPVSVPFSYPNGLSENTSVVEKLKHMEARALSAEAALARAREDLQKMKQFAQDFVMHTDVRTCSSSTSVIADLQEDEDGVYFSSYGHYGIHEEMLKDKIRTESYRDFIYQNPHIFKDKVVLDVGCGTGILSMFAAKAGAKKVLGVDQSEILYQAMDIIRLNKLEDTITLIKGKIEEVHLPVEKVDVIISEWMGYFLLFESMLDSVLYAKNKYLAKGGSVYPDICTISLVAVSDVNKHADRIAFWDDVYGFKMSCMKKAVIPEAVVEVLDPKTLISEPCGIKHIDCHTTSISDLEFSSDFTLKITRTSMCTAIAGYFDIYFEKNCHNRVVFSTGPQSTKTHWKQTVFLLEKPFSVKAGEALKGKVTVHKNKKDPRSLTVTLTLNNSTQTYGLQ
The following compounds are listed with their measured inhibition values.

Previously resolved entries follow.
[[record]]
sample_smiles = "Nc1ncnc2c1ncn2[C@@H]1O[C@H](CSCCCNCc2cccc(-c3cccc(F)c3)c2)[C@@H](O)[C@H]1O"
observed = "< 30%"

[[record]]
sample_smiles = "Nc1ncnc2c1ncn2[C@@H]1O[C@H](CSCCOc2ccc(-c3ccccc3O)cc2)[C@@H](O)[C@H]1O"
observed = "< 30%"

[[record]]
sample_smiles = "Nc1ncnc2c1ncn2[C@@H]1O[C@H](CSCCNC(=O)NCc2ccc(-c3cn[nH]c3)cc2)[C@@H](O)[C@H]1O"
observed = "3%"


Consider the record given below.
Consider Nc1ncnc2c1ncn2[C@@H]1O[C@H](CSCCNCc2cccc(-c3ccc(C(F)(F)F)cc3)c2)[C@@H](O)[C@H]1O . Its measured inhibition is < 30%
